# Tested on: CP203
# assay-info: qHTS profiling for inhibitors of Plasmodium falciparum proliferation (AID 504749); further: nearly all actives have a fitted effect of over 60% in size
# protocol-conditions: P. falciparum in erythrocytes, SYBR Green DNA, 72 h; series mostly up to 28.7 µM
Records with an inconclusive call do not appear. Calls of active or inactive are those of the source. The call rests on the fitted dose curve; in most records, active means well fitted inhibition curve with a large enough effect; inconclusive means small, poorly fitted or top-dose-only effect; inactive means flat fitted curve, though single readings scatter.
API: response.call in active, inactive

Observe how each entry below is paired with its result.
**Query** Tell me the assay call for "N[C@@H](Cc1ccc(N(CCCl)CCCl)cc1)C(=O)O" please.
**Result** inactive

**Query** Tell me the assay call for "C#CCOC(C(=O)OCCN(C)C)(c1ccccc1)c1ccccc1" please.
**Result** inactive

**Query** Tell me the assay call for "Oc1ccc(Cl)cc1Cc1ccccc1" please.
**Result** active

**Query** Tell me the assay call for CC1OC(C)OC(C)O1 (stereo not given) please.
**Result** inactive

**Query** Tell me the assay call for "C[C@]12C/C(=C/O)C(=O)C[C@@H]1CC[C@@H]1[C@@H]2CC[C@@]2(C)[C@H]1CC[C@]2(C)O" please.
**Result** inactive

Next:
**Query** Tell me the assay call for "CCOP(=S)(OCC)Oc1cc(C)nc(C(C)C)n1" please.
**Result** inactive

**Query** Tell me the assay call for "COc1ccc(C(=O)c2c(C)n(CCN3CCOCC3)c3ccccc23)cc1" please.
**Result** inactive

**Query** Tell me the assay call for "Oc1ccccc1-c1ccccc1" please.
**Result** inactive

**Query** Tell me the assay call for NCC(CC(=O)O)c1ccc(Cl)cc1 (stereo not given) please.
**Result** inactive

**Query** Tell me the assay call for CC[N+]1(C)CCCC(OC(=O)C(O)(c2ccccc2)c2ccccc2)C1 (stereo not given) please.
**Result** inactive

**Query** Tell me the assay call for "CC(=O)[C@H]1CC[C@H]2[C@@H]3CC[C@H]4C[C@H](O)CC[C@]4(C)[C@H]3C(=O)C[C@]12C" please.
**Result** inactive

**Query** Tell me the assay call for CCCC1CCCCN1 (stereo not given) please.
**Result** inactive

**Query** Tell me the assay call for "NCCc1cc(O)c(O)cc1O" please.
**Result** inactive

**Query** Tell me the assay call for CC1NCCOC1c1ccccc1 (stereo not given) please.
**Result** inactive

**Query** Tell me the assay call for "CCCN1CCC[C@@H]2Cc3[nH]ncc3C[C@H]21" please.
**Result** inactive

**Query** Tell me the assay call for CC(C)=CC1C(C(=O)OCc2cccc(Oc3ccccc3)c2)C1(C)C (stereo not given) please.
**Result** inactive

**Query** Tell me the assay call for "CN1CCN(C(=O)O[C@H]2c3nccnc3C(=O)N2c2ccc(Cl)cn2)CC1" please.
**Result** inactive

**Query** Tell me the assay call for "CC(=O)[C@H]1CC[C@H]2[C@@H]3CC[C@H]4C[C@](C)(O)CC[C@]4(C)[C@H]3CC[C@]12C" please.
**Result** inactive

**Query** Tell me the assay call for "NN=C(N)N" please.
**Result** inactive

**Query** Tell me the assay call for "CCOC(=O)C1(c2ccccc2)CCN(CCC(C#N)(c2ccccc2)c2ccccc2)CC1" please.
**Result** active

**Query** Tell me the assay call for CC(C)CC(N(C)C)C1(c2ccc(Cl)cc2)CCC1 (stereo not given) please.
**Result** inactive
